Ref: patent US20100035926A1

Biological target: GR (Homo sapiens)
Construct: endogenous in cells; host or cells: A549 (human lung carcinoma, ECACC No. 86012804), stably transfected with reporter plasmids only
Sequence (P04150 1-777): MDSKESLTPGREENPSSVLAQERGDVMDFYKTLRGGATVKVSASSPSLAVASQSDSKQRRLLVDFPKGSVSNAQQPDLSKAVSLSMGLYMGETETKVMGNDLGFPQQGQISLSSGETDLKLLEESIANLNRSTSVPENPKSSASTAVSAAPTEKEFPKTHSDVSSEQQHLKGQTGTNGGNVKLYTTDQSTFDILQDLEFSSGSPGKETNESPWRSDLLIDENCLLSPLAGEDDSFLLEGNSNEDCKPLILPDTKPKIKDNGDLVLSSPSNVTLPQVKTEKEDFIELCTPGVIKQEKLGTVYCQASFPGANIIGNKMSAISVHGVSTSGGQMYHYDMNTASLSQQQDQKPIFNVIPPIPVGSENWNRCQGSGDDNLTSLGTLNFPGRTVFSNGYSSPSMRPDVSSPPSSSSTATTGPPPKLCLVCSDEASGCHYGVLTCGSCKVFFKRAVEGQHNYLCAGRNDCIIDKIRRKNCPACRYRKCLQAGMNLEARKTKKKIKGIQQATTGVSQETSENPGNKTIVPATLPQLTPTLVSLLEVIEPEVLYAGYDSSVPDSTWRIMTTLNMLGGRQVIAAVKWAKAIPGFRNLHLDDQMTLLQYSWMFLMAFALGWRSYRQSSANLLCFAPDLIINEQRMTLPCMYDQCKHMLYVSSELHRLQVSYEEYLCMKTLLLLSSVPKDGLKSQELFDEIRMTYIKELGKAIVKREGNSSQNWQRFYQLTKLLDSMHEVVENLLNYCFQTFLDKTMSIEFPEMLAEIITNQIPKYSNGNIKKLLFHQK
Assay: GR Functional Assay - NFκB Assay (A549 SPAP cells, TNFα stimulated)
Assay type: cell-based
Settings: at least once; examples listed as agonists in NFkB and MMTV assays; read-out: potency pIC50 in the NFKB assay (converted)
Reported IC50 by item:

Example cases with answers are listed next.
CCN(CC(O)(CNC(=O)c1cnn(-c2ccccc2)c1N)C(F)(F)F)C(=O)c1ccccc1F (racemic) [Example 45 (racemic)]; < 0.316 µM
CCN(CC(O)(CNC(=O)c1cnn(-c2ccccc2)c1N)C(F)(F)F)C(=O)c1ccccc1 (racemic) [Example 43 (racemic)]; < 0.316 µM

Let's switch to this compound now.
Given item Nc1c(C(=O)NCC(O)(CN(CCF)C(=O)c2ccccc2F)C(F)(F)F)cnn1-c1ccc(F)cc1 (single isomer, unassigned) [Example 2 Enantiomer 1] , the value recorded as its IC50 is < 0.316 µM
